- Test Settings: in isopropanol, 290.85 K
Outcome Measure: solubility (mole fraction)
Hey, just send me the number, nothing else.

**Query** Endpoint output: solubility (mole fraction) of `COC(=O)C(C)(C)N=NC(C)(C)C(=O)OC` . Value?
**Result** 0.5

---

- Test Settings: in tetrachloromethane, 285.75 K
Outcome Measure: solubility (mole fraction)
Please state the value as a number alone, without comment.

**Query** Can you look up the measured solubility (mole fraction) of `COC(=O)C(C)(C)N=NC(C)(C)C(=O)OC` for me?
**Result** 0.564

---

- Test Settings: in n-butanol, 269.75 K
Outcome Measure: solubility (mole fraction)
Give the value as a plain number.

**Query** Query (compound): `COC(=O)C(C)(C)N=NC(C)(C)C(=O)OC` ; field requested: solubility (mole fraction)
**Result** 0.0232

---

- Test Settings: in n-propanol, 274.95 K
Outcome Measure: solubility (mole fraction)
Just the number.

**Query** So what does the record say about solubility (mole fraction) for `COC(=O)C(C)(C)N=NC(C)(C)C(=O)OC` ?
**Result** 0.0613

---

- Test Settings: in diethyl ether, 268.15 K
Outcome Measure: solubility (mole fraction)
Answer with the value's number alone.

**Query** Recorded solubility (mole fraction) for `COC(=O)C(C)(C)N=NC(C)(C)C(=O)OC` , please?
**Result** 0.19

---

- Test Settings: in THF, 253.85 K
Outcome Measure: solubility (mole fraction)
Output: the number by itself.

**Query** Requested field: solubility (mole fraction). Item: `COC(=O)C(C)(C)N=NC(C)(C)C(=O)OC`
**Result** 0.13

---

- Test Settings: in isopropanol, 265.75 K
Outcome Measure: solubility (mole fraction)
Output spec: single numeric token, no unit.

**Query** Dear colleague, I am looking for the recorded solubility (mole fraction) of the following compound: `COC(=O)C(C)(C)N=NC(C)(C)C(=O)OC`
**Result** 0.0199

---

- Test Settings: in ethyl acetate, 269.25 K
Outcome Measure: solubility (mole fraction)

**Query** What value of solubility (mole fraction) has been recorded for this entry: `COC(=O)C(C)(C)N=NC(C)(C)C(=O)OC`
**Result** 0.246

---

- Test Settings: in n-propanol, 288.45 K
Outcome Measure: solubility (mole fraction)
# output: bare number, no unit

**Query** For the compound `COC(=O)C(C)(C)N=NC(C)(C)C(=O)OC` , what solubility (mole fraction) is on record?
**Result** 0.352

---

- Test Settings: in n-butanol, 285.65 K
Outcome Measure: solubility (mole fraction)

**Query** Which solubility (mole fraction) value is on record for `COC(=O)C(C)(C)N=NC(C)(C)C(=O)OC` ?
**Result** 0.251

---

- Test Settings: in acetonitrile, 262.45 K
Outcome Measure: solubility (mole fraction)

**Query** What does the record list as solubility (mole fraction) for `COC(=O)C(C)(C)N=NC(C)(C)C(=O)OC` ?
**Result** 0.113

---

- Test Settings: in diethyl ether, 280.55 K
Outcome Measure: solubility (mole fraction)
Answer with the value's number alone.

**Query** For the compound shown here, `COC(=O)C(C)(C)N=NC(C)(C)C(=O)OC` , give the reported solubility (mole fraction).
**Result** 0.4

---

- Test Settings: in ethyl acetate, 276.15 K
Outcome Measure: solubility (mole fraction)
Give only the figure.

**Query** Give the measured solubility (mole fraction) of `COC(=O)C(C)(C)N=NC(C)(C)C(=O)OC` .
**Result** 0.342

---

- Test Settings: in methanol, 290.65 K
Outcome Measure: solubility (mole fraction)
The reply should be a number, written without any unit.

**Query** Could you tell me which solubility (mole fraction) is on file for `COC(=O)C(C)(C)N=NC(C)(C)C(=O)OC` ?
**Result** 0.482

---

- Test Settings: in isopropanol, 285.45 K
Outcome Measure: solubility (mole fraction)
Write the value as a bare number.

**Query** Record request: solubility (mole fraction) value, item `COC(=O)C(C)(C)N=NC(C)(C)C(=O)OC`
**Result** 0.26

---

- Test Settings: in isobutanol, 293.15 K
Outcome Measure: solubility (mole fraction)
Answer with a number only.

**Query** Dear colleague, I am looking for the recorded solubility (mole fraction) of the following compound: `COC(=O)C(C)(C)N=NC(C)(C)C(=O)OC`
**Result** 0.643

---

- Test Settings: in ethyl acetate, 278.45 K
Outcome Measure: solubility (mole fraction)
Lab note: jot down the number only; don't add units.

**Query** Recorded solubility (mole fraction) for `COC(=O)C(C)(C)N=NC(C)(C)C(=O)OC` , please?
**Result** 0.389

---

- Test Settings: in ethyl acetate, 255.15 K
Outcome Measure: solubility (mole fraction)
Give the figure only, with no unit attached.

**Query** Recorded solubility (mole fraction) of `COC(=O)C(C)(C)N=NC(C)(C)C(=O)OC` , please.
**Result** 0.114

---

- Test Settings: in n-butanol, 293.15 K
Outcome Measure: solubility (mole fraction)
Enter a number only.

**Query** Entry under review: `COC(=O)C(C)(C)N=NC(C)(C)C(=O)OC` . Reported solubility (mole fraction)?
**Result** 0.63

---

- Test Settings: in n-butanol, 259.15 K
Outcome Measure: solubility (mole fraction)
Format: numeric value only, no unit, no commentary.

**Query** Give its solubility (mole fraction) value. Item: `COC(=O)C(C)(C)N=NC(C)(C)C(=O)OC`
**Result** 0.0091

---

- Test Settings: in THF, 268.85 K
Outcome Measure: solubility (mole fraction)
Give only the figure.

**Query** Sample `COC(=O)C(C)(C)N=NC(C)(C)C(=O)OC` — what was its solubility (mole fraction)?
**Result** 0.263

---

- Test Settings: in acetone, 273.55 K
Outcome Measure: solubility (mole fraction)
Could you keep your reply to the number by itself?

**Query** Suppose we examine the compound `COC(=O)C(C)(C)N=NC(C)(C)C(=O)OC` ; what solubility (mole fraction) value has been reported?
**Result** 0.276

---

- Test Settings: in isobutanol, 290.95 K
Outcome Measure: solubility (mole fraction)
Kindly provide the number alone.

**Query** Request the reported solubility (mole fraction) associated with `COC(=O)C(C)(C)N=NC(C)(C)C(=O)OC`
**Result** 0.521

---

- Test Settings: in THF, 280.65 K
Outcome Measure: solubility (mole fraction)
Give the figure only, with no unit attached.

**Query** What value of solubility (mole fraction) has been reported for the following compound? `COC(=O)C(C)(C)N=NC(C)(C)C(=O)OC`
**Result** 0.443

---

- Test Settings: in ethyl acetate, 288.05 K
Outcome Measure: solubility (mole fraction)

**Query** Which measured solubility (mole fraction) value corresponds to `COC(=O)C(C)(C)N=NC(C)(C)C(=O)OC` ?
**Result** 0.611

---

- Test Settings: in isobutanol, 275.95 K
Outcome Measure: solubility (mole fraction)
Answer using only a numeral; do not append any unit.

**Query** Look up solubility (mole fraction): `COC(=O)C(C)(C)N=NC(C)(C)C(=O)OC`
**Result** 0.0587

---

- Test Settings: in n-propanol, 257.05 K
Outcome Measure: solubility (mole fraction)
# print the numeric value only

**Query** Reported solubility (mole fraction) for `COC(=O)C(C)(C)N=NC(C)(C)C(=O)OC` : what is it?
**Result** 0.0107

---

- Test Settings: in acetonitrile, 280.65 K
Outcome Measure: solubility (mole fraction)
Could you keep your reply to the number by itself?

**Query** Reported solubility (mole fraction) for `COC(=O)C(C)(C)N=NC(C)(C)C(=O)OC` : what is it?
**Result** 0.369

---

- Test Settings: in n-butanol, 265.55 K
Outcome Measure: solubility (mole fraction)
// keep it numeric: no unit symbol after the value

**Query** # input compound: `COC(=O)C(C)(C)N=NC(C)(C)C(=O)OC` ; wanted: its solubility (mole fraction)
**Result** 0.0145

---

- Test Settings: in toluene, 262.55 K
Outcome Measure: solubility (mole fraction)
Answer using only a numeral; do not append any unit.

**Query** Given `COC(=O)C(C)(C)N=NC(C)(C)C(=O)OC` , state its recorded solubility (mole fraction).
**Result** 0.161

---

- Test Settings: in methanol, 267.15 K
Outcome Measure: solubility (mole fraction)
// no unit string in output, number only

**Query** Give its solubility (mole fraction) value. Item: `COC(=O)C(C)(C)N=NC(C)(C)C(=O)OC`
**Result** 0.0308

---

- Test Settings: in toluene, 293.15 K
Outcome Measure: solubility (mole fraction)
Just the number, please, no unit attached.

**Query** Name the recorded solubility (mole fraction) for `COC(=O)C(C)(C)N=NC(C)(C)C(=O)OC` .
**Result** 0.731

---

- Test Settings: in diethyl ether, 275.65 K
Outcome Measure: solubility (mole fraction)
Answer with the value's number alone.

**Query** Quick one: solubility (mole fraction) of `COC(=O)C(C)(C)N=NC(C)(C)C(=O)OC` ?
**Result** 0.298

Data credit: BigSolDB 2.1
